Assay: Cytotoxicity against human RWPE1 cells after 72 hrs by MTT assay relative to untreated control
Assay type: cell-based, RWPE-1
Settings: rwpe-1, 72 h
measured.attribute: LC50

Example cases with answers are listed next.
mol_smiles=COC(=O)C[Se]C(=O)c1ccc(Cl)cc1 obs_value="> 100 µM"
mol_smiles=COc1cc(OC)cc(C(=O)[Se]CC(N)=O)c1 obs_value="> 100 µM"

stdin: Sample `O=C(C[Se]C(=O)c1ccc(Cl)cc1)Oc1ccccc1` — what was its LC50?
stdout: > 100 µM

====

Assay: Selectivity index, ratio of GI50 for human RWPE1 cells to GI50 for human PC3 cells
Format: functional
Reported RatioGI50 values for the following compounds.

Example cases with answers are listed next.
compound="COc1cc([C@@H]2c3cc4c(cc3[C@@H](O[C@@H]3O[C@@H]5CO[C@@H](C)O[C@H]5[C@H](O)[C@H]3O)[C@H]3COC(=O)[C@H]23)OCO4)cc(OC)c1O [ETOPOSIDE]" measured_attribute=RatioGI50 obs_value=1.4
compound=O=C(C[Se]C(=O)c1ccccc1)Oc1ccccc1 measured_attribute=RatioGI50 obs_value=1.1
compound=O=C1[Se]C(=O)c2ccccc21 measured_attribute=RatioGI50 obs_value=3.6
compound=O=C(C[Se]C(=O)c1ccc(Cl)cc1)Oc1ccccc1 measured_attribute=RatioGI50 obs_value=1.1
compound=C[Se]C(=O)c1ccc(C(=O)[Se]C)cc1 measured_attribute=RatioGI50 obs_value=6.4

// moving on: another record for RatioGI50
stdin: Sample `C[Se]C(=O)c1cccc(C(=O)[Se]C)c1` — what was its RatioGI50?
stdout: 0.4
